- EXPERIMENTAL PROTOCOL: refractive index (Na D-line) (dimensionless)
- REPORTED CONDITIONS: 293.15 K; 101.33 kPa; Liquid; Standard Abbe refractometry
Numbers after ± are expanded uncertainties.
QUANTITY MEASURED: refractive index

CC(O)CO (stereo not given) :: 1.43143 ± 0.0007
OCCO :: 1.43184 ± 0.0007
C=CC(C)(O)CCC=C(C)C (stereo not given) :: 1.46272 ± 0.0009
OCCOCCO :: 1.44724 ± 0.0007
OCCOCCOCCO :: 1.45314 ± 0.0007

FYI, the data here is from the NIST ThermoML archive (doi:10.1021/je700577t).
